# method-notes: chemical genetic growth profiling, strain panel (AID 1159580);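 note: tested at 20 µM; growth read once vehicle control cultures reached saturation at 30 °C; 1 = growth at the plate median or of vehicle wells; lower values mean less growth of the strain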
# condition-details: S. cerevisiae deletion strains, growth OD, locus YNR049C, strain mso1, stronger effect = lower value
Hit rate of the full screen: of about 5,500 compounds, about 2,000 (36%) were called active. Not shown: some 18% with an inconclusive outcome. This is one part of the list.
Below, each of the compounds is paired with its reported normalized growth value.
Response field accepts a number only; no unit should be typed.

Item under review: "Cc1cn[nH]c1" . Reported normalized growth?
1.01

Suppose we examine the compound "CC[N+](C)(C)c1cccc(O)c1" ; what normalized growth value has been reported?
1.01

// normalized growth lookup, key: CCC(C)[C@H]1O[C@]2(C=C[C@@H]1C)C[C@@H]1C[C@@H](C/C=C(\C)[C@@H](OC3C[C@H](OC)C(O[C@H]4C[C@H](OC)[C@@H](O)[C@H](C)O4)[C@H](C)O3)[C@@H](C)/C=C/C=C3\CO[C@@H]4[C@H](O)C(C)=C[C@@H](C(=O)O1)[C@]34O)O2 (stereo partly drawn)
0.987

Look at this compound and give its reported normalized growth. CC12CCC(=O)C=C1CCC1C2[C@@H](O)CC2(C)C1CC[C@]2(O)C(=O)COP(=O)(O)O (stereo partly drawn)
0.995

Look at this compound and give its reported normalized growth. C[C@H](CCC(=O)O)[C@H]1CCC2C3C(=O)CC4CC(=O)CC[C@]4(C)C3CC(=O)[C@@]21C (stereo partly drawn)
0.983
